- TEST_DETAILS: self-splicing fitness, log relative to wild type (ln ratio); higher = more splicing; Tetrahymena group I intron in knt gene, E. coli kanamycin selection, DiMSum; sequences stand for … in CUCUCU…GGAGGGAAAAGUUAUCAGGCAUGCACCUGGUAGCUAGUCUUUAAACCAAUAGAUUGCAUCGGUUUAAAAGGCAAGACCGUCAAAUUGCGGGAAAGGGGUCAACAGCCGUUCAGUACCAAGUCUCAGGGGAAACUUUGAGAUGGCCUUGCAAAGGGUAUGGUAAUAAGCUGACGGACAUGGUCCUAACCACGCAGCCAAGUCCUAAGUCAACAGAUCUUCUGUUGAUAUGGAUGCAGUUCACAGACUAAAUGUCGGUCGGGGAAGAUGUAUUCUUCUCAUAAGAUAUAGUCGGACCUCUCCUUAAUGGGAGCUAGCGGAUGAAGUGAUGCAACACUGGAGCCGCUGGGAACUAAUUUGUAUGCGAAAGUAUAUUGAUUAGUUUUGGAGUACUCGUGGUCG;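 note: selection with 25 µg/mL kanamycin versus none on LB agar overnight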
- SETTINGS: 37 °C
OBSERVED_PROPERTY: self-splicing fitness (ln)
Returns: the value as a bare number; no unit string appended.

| MONOMER_SEQUENCE | self-splicing fitness (ln) |
| --- | --- |
| UUCAAGCAAUAUUACGGUUA | 0.272 |

input: Name the recorded self-splicing fitness (ln) of the sequence listed here: AUACAGCAAUAUUACGGCUU
output: 0.115

input: Entry CAGUAGCAAUAUUACGUAGG needs its self-splicing fitness (ln) filled in; supply it.
output: -0.0678

input: Name the recorded self-splicing fitness (ln) of the item CUCCAGCAAUAUUACGUGCA in your answer.
output: -2.32

input: Name the recorded self-splicing fitness (ln) of the item CCUAAGCAAUAUUACGUUGG in your answer.
output: -2.96

input: Please give measured self-splicing fitness (ln) of the following entry: GGCGAGCAAUAUUACGUACG
output: -1.35

input: Give the value of self-splicing fitness (ln) reported for the following: UACGAGCAAUAUUACGUGUA
output: -2.21

input: Determine its reported self-splicing fitness (ln): GUCCAGCAAUAUUACGUCUU
output: 0.275
